Field: melting point. Provide a value for each of the molecules that follow.

[Q] Complete the entry with melting point for CN1CCN(c2ccc3c(c2)NC(=O)C(C)(c2ccc([N+](=O)[O-])cc2)C3=O)CC1 (centres unmarked) [Example 51]
[A] 150 to 151 °C

[Q] Complete the entry with melting point for CN(C)c1cc(Cl)c2c(c1)NC(=O)C(C)(c1ccccc1)C2=O (centres unmarked) [Example 11]
[A] 224 to 226 °C

[Q] Complete the entry with melting point for CC1(c2ccc([N+](=O)[O-])cc2)C(=O)Nc2cc(Cl)ccc2C1=O (centres unmarked) [Example 37]
[A] 209 to 210 °C

[Q] Complete the entry with melting point for CC1(c2cccc(O)c2)C(=O)Nc2cc(Cl)cc(Cl)c2C1=O (centres unmarked) [Example 20]
[A] 248 °C (dec.)

[Q] Complete the entry with melting point for CC1(c2ccccc2)C(=O)Nc2ccccc2C1=O (centres unmarked) [Example 2, 3-methyl-3-phenyl-1H-quinoline-2,4-dione]
[A] 194 to 196 °C

Entry source: patent US7592457B2
